Hi there, I'd appreciate the recorded CC50 at 72 h for every entry that follows.
- Assay protocol: Cytotoxicity against human HEK293T cells measured after 72 hrs by MTT assay
- Format: cell-based, HEK-293T
The response must be a number in mM with no trailing unit.

Dear colleague, I am looking for the recorded CC50 at 72 h of the following compound: CC12CCC3(CN(c4ccccc4)C(=O)C3C1C(=O)N/N=C1\C[C@H]3CC[C@]1(C)C3(C)C)O2 (mixture of isomers)
1.45

Please look up its CC50 at 72 h: CSc1nc2[nH]nc([N+](=O)[O-])c(=O)n2n1
1.51

Record request: CC50 at 72 h value, item CC1(C)[C@@H]2CC[C@@]1(C)/C(=N/NC(=O)c1ccccc1)C2
1.09

Fill in: CC50 at 72 h of CC12C=CC3(CN(c4ccc(Br)cc4)C(=O)C3C1C(=O)N/N=C1\C(C)(C)[C@H]3CC[C@]1(C)C3)O2 (mixture of isomers) is ___
0.078

Name the recorded CC50 at 72 h for CC12C=CC3(CN(c4ccccc4)C(=O)C3C1C(=O)N/N=C1\C(C)(C)[C@H]3CC[C@]1(C)C3)O2 (mixture of isomers) .
1.18

Bench note: what CC50 at 72 h did CC12C=CC3(CN(c4ccccc4)C(=O)C3C1C(=O)N/N=C1\C[C@H]3CC[C@]1(C)C3(C)C)O2 (mixture of isomers) show?
0.448

So what's the measured CC50 at 72 h for this one? CC12C=CC3(CN(c4ccc(Br)cc4)C(=O)C3C1C(=O)N/N=C1\C[C@H]3CC[C@]1(C)C3(C)C)O2 (mixture of isomers)
0.175

Given the compound CC1(C)[C@@H]2CC[C@@]1(C)/C(=N/NC(=O)C1C3C=CC4(CN(Cc5ccccc5)C(=O)C14)O3)C2 (mixture of isomers) , what is its reported CC50 at 72 h?
0.86

Field request: CC50 at 72 h | item: CC12C=CC3(CN(CCc4ccccc4)C(=O)C3C1C(=O)N/N=C1\C[C@H]3CC[C@]1(C)C3(C)C)O2 (mixture of isomers)
0.216

Any idea what CC50 at 72 h was measured for COc1ccc(N2CC34C=CC(C)(O3)C(C(=O)N/N=C3\C(C)(C)[C@H]5CC[C@]3(C)C5)C4C2=O)cc1 (mixture of isomers) ?
0.152

Param item = COCCN1CC23C=CC(O2)C(C(=O)N/N=C2\C[C@H]4CC[C@]2(C)C4(C)C)C3C1=O (mixture of isomers) ; retrieve measured CC50 at 72 h.
1.03

Need CC50 at 72 h of CCN1CC23C=CC(O2)C(C(=O)N/N=C2\C[C@H]4CC[C@]2(C)C4(C)C)C3C1=O (mixture of isomers) , thanks.
1.07

Can you share its CC50 at 72 h? I mean this compound: CC12C=CC3(CN(Cc4ccccc4)C(=O)C3C1C(=O)N/N=C1\C[C@H]3CC[C@]1(C)C3(C)C)O2 (mixture of isomers)
0.335

// lookup CC50 at 72 h for CC1(C)[C@@H]2CC[C@@]1(C)/C(=N/NC(=O)C1C3OC4(CN(c5ccccc5)C(=O)C14)C1OC31)C2 (mixture of isomers)
1.04

---

- Assay protocol: Selective index, ratio of CC50 for MDCK cells to IC50 for Hantaan 76-118
- Assay type: toxicity
- Measurement setup: dog, read-out: Ratio CC50/IC50
Would you mind telling me the reported selectivity ratio of each entry?
Number only, please.

Report selectivity ratio for CCC12C=CC3(CN(c4ccccc4)C(=O)C3C1C(=O)N/N=C1\C(C)(C)[C@H]3CC[C@]1(C)C3)O2 (mixture of isomers) please.
3

For the molecule shown here, CC1(C)[C@@H]2CC[C@@]1(C)/C(=N/NC(=O)C1C3OC4(CN(c5ccccc5)C(=O)C14)C1OC31)C2 (mixture of isomers) , give the reported selectivity ratio.
5

selectivity ratio for CC12CCC3(CN(c4ccccc4)C(=O)C3C1C(=O)N/N=C1\C[C@H]3CC[C@]1(C)C3(C)C)O2 (mixture of isomers) ?
6

Data origin: ChEMBL document CHEMBL4811236
